Data credit: ChEMBL document CHEMBL4819015

Target: ATP-dependent translocase ABCB1 (Homo sapiens, UniProt P08183)
Sequence (P08183 whole entry): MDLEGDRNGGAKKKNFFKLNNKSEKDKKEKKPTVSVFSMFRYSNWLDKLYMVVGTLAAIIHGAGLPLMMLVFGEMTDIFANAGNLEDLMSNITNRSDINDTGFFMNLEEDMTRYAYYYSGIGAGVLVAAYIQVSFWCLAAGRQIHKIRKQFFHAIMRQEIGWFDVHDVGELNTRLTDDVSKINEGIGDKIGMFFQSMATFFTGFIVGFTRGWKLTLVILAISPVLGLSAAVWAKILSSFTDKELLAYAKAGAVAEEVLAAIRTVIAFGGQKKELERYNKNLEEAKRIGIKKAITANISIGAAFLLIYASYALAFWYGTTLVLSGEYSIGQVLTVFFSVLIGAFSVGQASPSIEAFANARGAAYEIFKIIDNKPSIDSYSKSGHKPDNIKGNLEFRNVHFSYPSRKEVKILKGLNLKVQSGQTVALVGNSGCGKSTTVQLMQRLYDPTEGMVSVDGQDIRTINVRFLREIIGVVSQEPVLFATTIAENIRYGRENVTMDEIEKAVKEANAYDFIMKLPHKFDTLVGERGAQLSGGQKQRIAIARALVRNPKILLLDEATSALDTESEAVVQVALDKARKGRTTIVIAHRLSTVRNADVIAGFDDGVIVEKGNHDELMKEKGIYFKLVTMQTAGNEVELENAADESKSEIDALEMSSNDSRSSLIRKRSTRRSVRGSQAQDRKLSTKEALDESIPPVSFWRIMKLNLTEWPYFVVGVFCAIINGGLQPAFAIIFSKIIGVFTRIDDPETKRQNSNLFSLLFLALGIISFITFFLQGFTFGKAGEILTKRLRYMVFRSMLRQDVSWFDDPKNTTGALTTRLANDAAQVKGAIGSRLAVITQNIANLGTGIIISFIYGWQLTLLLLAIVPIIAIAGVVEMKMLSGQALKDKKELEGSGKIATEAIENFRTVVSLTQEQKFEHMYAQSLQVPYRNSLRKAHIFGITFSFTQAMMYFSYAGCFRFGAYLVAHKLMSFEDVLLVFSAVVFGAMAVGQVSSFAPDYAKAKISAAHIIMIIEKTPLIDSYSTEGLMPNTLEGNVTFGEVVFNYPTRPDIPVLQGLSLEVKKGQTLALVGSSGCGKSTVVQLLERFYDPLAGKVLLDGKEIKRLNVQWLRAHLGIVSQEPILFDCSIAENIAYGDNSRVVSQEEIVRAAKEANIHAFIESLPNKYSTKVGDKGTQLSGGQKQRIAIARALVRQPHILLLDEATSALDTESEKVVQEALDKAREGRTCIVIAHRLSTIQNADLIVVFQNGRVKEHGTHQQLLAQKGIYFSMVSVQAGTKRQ
Assay: Reversal of P-glycoprotein mediated multidrug resistance in human KBV cells assessed as potentiation of paclitaxel-induced cytotoxicity by measuring cell survival rate at 10 uM measured after 72 hrs by MTT assay
Assay type: cell-based
Record rule met whenever cell survival rate is at 30% or higher; record rule not met when lower.

{"molecule": "CC1(C)CC[C@]2(C(=O)OCC(=O)OCCOCCOCCOCCOCCOCCOCCOCCOCCOCCOCCOCCOCCO)CC[C@]3(C)C(=CC[C@@H]4[C@@]5(C)Cc6nccnc6[C@@](C)(CO)[C@@H]5CC[C@]43C)[C@@H]2C1", "category": "rule met"}
{"molecule": "CC1(C)CC[C@]2(C(=O)OCc3ccccc3)CC[C@]3(C)C(=CC[C@@H]4[C@@]5(C)Cc6nccnc6[C@@](C)(COC(=O)CCC(=O)OCCOCCO)[C@@H]5CC[C@]43C)[C@@H]2C1", "category": "rule met"}
{"molecule": "CC1(C)CC[C@]2(C(=O)OCC(=O)OCCOCCO)CC[C@]3(C)C(=CC[C@@H]4[C@@]5(C)Cc6nccnc6[C@@](C)(CO)[C@@H]5CC[C@]43C)[C@@H]2C1", "category": "rule not met"}
{"molecule": "CC(=O)O[C@H]1C(=O)[C@@]2(C)[C@H]([C@H](OC(=O)c3ccccc3)[C@]3(O)C[C@H](OC(=O)[C@H](O)[C@@H](NC(=O)c4ccccc4)c4ccccc4)C(C)=C1C3(C)C)[C@]1(OC(C)=O)CO[C@@H]1C[C@@H]2O", "category": "rule met"}
{"molecule": "CC1(C)CC[C@]2(C(=O)OCc3ccccc3)CC[C@]3(C)C(=CC[C@@H]4[C@@]5(C)Cc6cn[nH]c6[C@@](C)(CO)[C@@H]5CC[C@]43C)[C@@H]2C1", "category": "rule not met"}
{"molecule": "CC1(C)CC[C@]2(C(=O)OCc3ccccc3)CC[C@]3(C)C(=CC[C@@H]4[C@@]5(C)Cc6nccnc6[C@@](C)(COC(=O)CCC(=O)OCCOCCOCCOCCO)[C@@H]5CC[C@]43C)[C@@H]2C1", "category": "rule not met"}
{"molecule": "CC1(C)CC[C@]2(C(=O)OCC(=O)OCCOCCOCCOCCOCCOCCOCCOCCOCCO)CC[C@]3(C)C(=CC[C@@H]4[C@@]5(C)Cc6nccnc6[C@@](C)(CO)[C@@H]5CC[C@]43C)[C@@H]2C1", "category": "rule not met"}
{"molecule": "CC1(C)CC[C@]2(C(=O)OCC(=O)OCCOCCOCCOCCO)CC[C@]3(C)C(=CC[C@@H]4[C@@]5(C)Cc6nccnc6[C@@](C)(CO)[C@@H]5CC[C@]43C)[C@@H]2C1", "category": "rule not met"}
{"molecule": "CN1CCN(C(=O)[C@]23CCC(C)(C)C[C@H]2C2=CC[C@@H]4[C@@]5(C)Cc6nccnc6[C@@](C)(CO)[C@@H]5CC[C@@]4(C)[C@]2(C)CC3)CC1", "category": "rule not met"}
{"molecule": "Cc1nc2c(s1)C[C@@]1(C)[C@@H](CC[C@]3(C)[C@@H]1CC=C1[C@@H]4CC(C)(C)CC[C@]4(C(=O)OCc4ccccc4)CC[C@]13C)[C@]2(C)CO", "category": "rule not met"}
{"molecule": "CC1(C)CC[C@]2(C(=O)OCc3ccccc3)CC[C@]3(C)C(=CC[C@@H]4[C@@]5(C)Cc6nccnc6[C@@](C)(COC(=O)CCC(=O)OCCOCCOCCOCCOCCOCCOCCOCCOCCO)[C@@H]5CC[C@]43C)[C@@H]2C1", "category": "rule not met"}
{"molecule": "CC1(C)CC[C@]2(C(=O)OCc3ccccc3)CC[C@]3(C)C(=CC[C@@H]4[C@@]5(C)Cc6nccnc6[C@@](C)(COC(=O)CCC(=O)OCCOCCOCCO)[C@@H]5CC[C@]43C)[C@@H]2C1", "category": "rule met"}
{"molecule": "CC1(C)CC[C@]2(C(=O)OCc3ccccc3)CC[C@]3(C)C(C(=O)C[C@@H]4[C@@]5(C)Cc6nccnc6[C@@](C)(CO)[C@@H]5CC[C@]43C)[C@@H]2C1 (some centres not stated)", "category": "rule not met"}
{"molecule": "CN(C)CCCOC(=O)[C@]12CCC(C)(C)C[C@H]1C1=CC[C@@H]3[C@@]4(C)Cc5nccnc5[C@@](C)(CO)[C@@H]4CC[C@@]3(C)[C@]1(C)CC2", "category": "rule not met"}
{"molecule": "CC1(C)CC[C@]2(C(=O)OCc3ccccc3)CC[C@]3(C)C(=CC[C@@H]4[C@@]5(C)Cc6nccnc6[C@@](C)(CO)[C@@H]5CC[C@]43C)[C@@H]2C1", "category": "rule not met"}
{"molecule": "CC1(C)CC[C@]2(C(=O)OCc3ccccc3)CC[C@]3(C)C(=CC[C@@H]4[C@@]5(C)Cc6nccnc6[C@@](C)(COC(=O)CCC(=O)OCCOCCOCCOCCOCCOCCOCCOCCOCCOCCOCCOCCOCCO)[C@@H]5CC[C@]43C)[C@@H]2C1.CO", "category": "rule not met"}
{"molecule": "CC1(C)CC[C@]2(C(=O)O)CC[C@]3(C)C(=CC[C@@H]4[C@@]5(C)CC[C@H](O)[C@@](C)(CO)[C@@H]5CC[C@]43C)[C@@H]2C1", "category": "rule met"}

----------
Assay: Aqueous solubility of compound in deionized water at 37 degC measured by UV-vis spectrophotometry
Settings: pH 7.4, read-out: solubility
value_type: solubility

{"structure_smiles": "CC1(C)CC[C@]2(C(=O)OCc3ccccc3)CC[C@]3(C)C(=CC[C@@H]4[C@@]5(C)Cc6nccnc6[C@@](C)(COC(=O)CCC(=O)OCCOCCOCCOCCOCCOCCOCCOCCOCCO)[C@@H]5CC[C@]43C)[C@@H]2C1", "value_observed": "546 µg/mL"}
{"structure_smiles": "CC1(C)CC[C@]2(C(=O)OCc3ccccc3)CC[C@]3(C)C(=CC[C@@H]4[C@@]5(C)Cc6nccnc6[C@@](C)(CO)[C@@H]5CC[C@]43C)[C@@H]2C1", "value_observed": "1.2 µg/mL"}
{"structure_smiles": "CC1(C)CC[C@]2(C(=O)OCc3ccccc3)CC[C@]3(C)C(=CC[C@@H]4[C@@]5(C)Cc6nccnc6[C@@](C)(COC(=O)CCC(=O)OCCOCCOCCOCCO)[C@@H]5CC[C@]43C)[C@@H]2C1", "value_observed": "21.6 µg/mL"}
{"structure_smiles": "CC1(C)CC[C@]2(C(=O)OCc3ccccc3)CC[C@]3(C)C(=CC[C@@H]4[C@@]5(C)Cc6nccnc6[C@@](C)(COC(=O)CCC(=O)OCCOCCOCCOCCOCCOCCOCCOCCOCCOCCOCCOCCOCCO)[C@@H]5CC[C@]43C)[C@@H]2C1.CO", "value_observed": "789 µg/mL"}

----------
Experiment: Stability of compound in presence of Porcine liver esterase assessed as residual activity at pH 7.4 measured after 24 hrs
Type: ADME
Details: pig, read-out: Stabilty

{"structure_smiles": "CC1(C)CC[C@]2(C(=O)OCc3ccccc3)CC[C@]3(C)C(=CC[C@@H]4[C@@]5(C)Cc6nccnc6[C@@](C)(COC(=O)CCC(=O)OCCOCCOCCOCCO)[C@@H]5CC[C@]43C)[C@@H]2C1", "units_symbol": "%", "remaining at 24 h": 78.9}

----------
Target: ATP-dependent translocase ABCB1 (Homo sapiens, UniProt P08183)
Assay: Reversal of P-glycoprotein mediated multidrug resistance in human KBV cells assessed as potentiation of paclitaxel-induced cytotoxicity by measuring cell survival rate at 10 uM measured after 72 hrs by MTT assay
Type: cell-based

{"structure_smiles": "CC1(C)CC[C@]2(C(=O)N3CCOCC3)CC[C@]3(C)C(=CC[C@@H]4[C@@]5(C)Cc6nccnc6[C@@](C)(CO)[C@@H]5CC[C@]43C)[C@@H]2C1", "units_symbol": "%", "cell survival rate": 16.37}
{"structure_smiles": "CC1(C)CC[C@]2(C(=O)OCC(=O)OCCOCCOCCO)CC[C@]3(C)C(=CC[C@@H]4[C@@]5(C)Cc6nccnc6[C@@](C)(CO)[C@@H]5CC[C@]43C)[C@@H]2C1", "units_symbol": "%", "cell survival rate": 28.76}
{"structure_smiles": "CC1(C)CC[C@]2(C(=O)O)CC[C@]3(C)C(=CC[C@@H]4[C@@]5(C)Cc6cn[nH]c6[C@@](C)(CO)[C@@H]5CC[C@]43C)[C@@H]2C1", "units_symbol": "%", "cell survival rate": 99.31}
{"structure_smiles": "CC1(C)CC[C@]2(C(=O)N3CCCCC3)CC[C@]3(C)C(=CC[C@@H]4[C@@]5(C)Cc6nccnc6[C@@](C)(CO)[C@@H]5CC[C@]43C)[C@@H]2C1", "units_symbol": "%", "cell survival rate": 25.27}
{"structure_smiles": "Cc1nc2c(s1)C[C@@]1(C)[C@@H](CC[C@]3(C)[C@@H]1CC=C1[C@@H]4CC(C)(C)CC[C@]4(C(=O)O)CC[C@]13C)[C@]2(C)CO", "units_symbol": "%", "cell survival rate": 61.78}
{"structure_smiles": "CCN1CCN(C(=O)[C@]23CCC(C)(C)C[C@H]2C2=CC[C@@H]4[C@@]5(C)Cc6nccnc6[C@@](C)(CO)[C@@H]5CC[C@@]4(C)[C@]2(C)CC3)CC1", "units_symbol": "%", "cell survival rate": 16.67}
